The reported numbers originate from patent US20220040297A1.

molecular target: T1, CD3ε homodimer protein (human, UniProt P07766 23-126, limits assumed, sulfo-tag or biotin label in some ECL assays); test: SPR, CD3ε homodimer on chip;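 also: biacore SPR with antibody variants flowed as analyte over amine-coupled CD3ε homodimer on a CM chip, bound amount of each single-residue H chain variant over that of parent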
T1 construct: also called human CD3ε homodimer protein; CD3 (CD3ε)
T1 sequence (P07766 23-126 limits assumed): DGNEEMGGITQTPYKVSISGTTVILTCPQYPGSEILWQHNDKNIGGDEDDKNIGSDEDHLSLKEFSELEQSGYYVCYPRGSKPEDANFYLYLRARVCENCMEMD
PROPERTY_MEASURED: ratio of amounts bound vs CE115HA000
When you answer, write just the number.

## Input Fill blank: measured ratio of amounts bound vs CE115HA000 of the binder CE115HA000 N53K (antibody, name in Kabat numbering, V domains shown) VH: QVQLVESGGGVVQPGRSLRLSCAASGFTFSNAWMHWVRQAPGKGLEWVAQIKAKSKNYATYYAESVKGRFTISRDDSKNSLYLQMNSLKTEDTAVYYCRYVHYGAYYGVDAWGQGTTVTVSS VL: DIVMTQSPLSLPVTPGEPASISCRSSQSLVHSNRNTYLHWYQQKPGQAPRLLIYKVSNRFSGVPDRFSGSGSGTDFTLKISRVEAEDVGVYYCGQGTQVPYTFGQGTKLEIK is ____.
## Output 0.78

## Input Likewise for CE115HA000 R16Q (antibody, name in Kabat numbering, V domains shown) VH: QVQLVESGGGVVQPGQSLRLSCAASGFTFSNAWMHWVRQAPGKGLEWVAQIKAKSNNYATYYAESVKGRFTISRDDSKNSLYLQMNSLKTEDTAVYYCRYVHYGAYYGVDAWGQGTTVTVSS VL: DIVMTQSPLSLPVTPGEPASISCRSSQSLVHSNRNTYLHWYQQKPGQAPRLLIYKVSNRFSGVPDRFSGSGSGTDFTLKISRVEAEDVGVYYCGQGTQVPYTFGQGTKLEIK ?
## Output 0.9

## Input Now try CE115HA000 V95D (antibody, name in Kabat numbering, V domains shown) VH: QVQLVESGGGVVQPGRSLRLSCAASGFTFSNAWMHWVRQAPGKGLEWVAQIKAKSNNYATYYAESVKGRFTISRDDSKNSLYLQMNSLKTEDTAVYYCRYDHYGAYYGVDAWGQGTTVTVSS VL: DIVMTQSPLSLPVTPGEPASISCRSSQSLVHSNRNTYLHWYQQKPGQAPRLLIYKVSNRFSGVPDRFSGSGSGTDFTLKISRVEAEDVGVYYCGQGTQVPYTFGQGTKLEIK .
## Output 0.24

## Input Also need CE115HA000 N54A (antibody, name in Kabat numbering, V domains shown) VH: QVQLVESGGGVVQPGRSLRLSCAASGFTFSNAWMHWVRQAPGKGLEWVAQIKAKSNAYATYYAESVKGRFTISRDDSKNSLYLQMNSLKTEDTAVYYCRYVHYGAYYGVDAWGQGTTVTVSS VL: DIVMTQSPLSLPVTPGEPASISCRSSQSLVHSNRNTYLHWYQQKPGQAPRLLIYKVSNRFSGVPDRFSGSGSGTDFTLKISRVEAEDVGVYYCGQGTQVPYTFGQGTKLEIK , thanks.
## Output 0.85

## Input Also, CE115HA000 V100cP (antibody, name in Kabat numbering, V domains shown) VH: QVQLVESGGGVVQPGRSLRLSCAASGFTFSNAWMHWVRQAPGKGLEWVAQIKAKSNNYATYYAESVKGRFTISRDDSKNSLYLQMNSLKTEDTAVYYCRYVHYGAYYGPDAWGQGTTVTVSS VL: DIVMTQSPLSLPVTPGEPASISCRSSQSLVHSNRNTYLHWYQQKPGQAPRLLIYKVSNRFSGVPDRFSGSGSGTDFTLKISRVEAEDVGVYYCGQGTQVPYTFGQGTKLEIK please.
## Output 0.8
